Biological target: LPAR1 (Homo sapiens)
Construct: host or cells: U2OS
Test: IP-One HTRF Assay
Type: cell-based
Settings: U2OS cells stably expressing LPAR1; LPA stimulation; IP-One Tb HTRF kit; read-out: Maximum Inhibition
Procedure: U2OS cells stably expressing LPAR1 (Life Technologies #K1519A) were plated at 20000 cells/well in growth medium (McCoy's 5A(Life Technologies #16600-082)) with 10% dFBS (Life Technologies #26400-036), 0.1 mM non-essential amino acids, 25 mM HEPES, 1 mM sodium pyruvate, 1% penicillin/streptomycin, 50 μg/mL hygromycin, and 100 μg/mL Geneticin® in tissue culture treated 384-well white plates (Greiner #781080) in humidified 5% CO2 at 37° C. overnight. […]
Quick list: Emax per entry.
measured_endpoint: Emax (%)

                                    molecule  numeric_readout
 0  COc1cc(OC)cc(C(=O)N(CCCc2ccccc2)CCCC(C)(C)C(=O)O)c1               82
 1  COc1cc(C(=O)N(CCCc2ccccc2)CCSCCC(=O)O)cc(OC)c1C               82
 2  COc1cc(C(=O)N(CCCCC(=O)O)CCCc2ccc(Cl)o2)cc(OC)c1C               73
 3  COc1cc(C(=O)N(CCCCC(=O)O)CCCc2ccc(F)cc2)cc(OC)c1C               70
 4  COc1cc(C(=O)N(CCCCCC(=O)O)CCCc2ccccc2)cc(OC)c1C              105
 5  COc1cc(C(=O)N(CCCCC(=O)O)CCCc2ccc(C)o2)cc(OC)c1C               87
 6  COc1cc(C(=O)N(CCCc2cccc(F)c2)CCSCC(=O)O)cc(OC)c1C               85
 7  COc1cc(C(=O)N(CCCc2ccccc2)CCCC(C)C(=O)O)cc(OC)c1C (stereo not drawn)               91
 8  COc1ccc(C2(C(=O)N(CCCCC(=O)O)CCCc3ccccc3)CC2)cc1               84
 9  COc1cc(C(=O)N(CCCC(=O)O)CCCc2ccccc2)cc(OC)c1C               85
10  COc1cc(C(=O)N(CCCc2ccccc2)CCOCP(=O)(O)O)cc(OC)c1C               85
11  COc1cc(OC)cc(C(=O)N(CCCc2ccccc2)CCCC(C)C(=O)O)c1 (stereo not drawn)               76

###

System: LPA-induced MCP-1 in NRK-49F cells
Assay: LPA-induced MCP-1 AlphaLISA assay
Type: cell-based
Settings: Rattus norvegicus, final LPA 10 μM, 7 hours, read-out: Maximum Inhibition
# Emax annotations
measured_endpoint: Emax (%)

                                    compound  unit_string  numeric_readout
 0  COc1cc(C(=O)N(CCCCCC(=O)O)CCCc2ccccc2)cc(OC)c1C            %               97
 1  COc1cc(C(=O)N(CCCc2ccc(C)o2)CCSCC(=O)O)cc(OC)c1C            %               80
 2  COc1cc(C(=O)N(CCCCC(=O)O)CCCc2ccc(F)cc2)cc(OC)c1C            %               77
 3  COc1ccc(C2(C(=O)N(CCCCC(=O)O)CCCc3cccc(Cl)c3)CC2)cc1            %               80
 4  COc1ccc(C2(C(=O)N(CCCCC(=O)O)CCCc3ccccc3)CC2)nc1            %               51
 5  COc1ccc(C(C)(C)C(=O)N(CCCCC(=O)O)CCCc2ccccc2)cc1            %               12
 6  CCCCC(CCCN(CCCc1ccccc1)C(=O)c1cc(OC)c(C)c(OC)c1)C(=O)O (stereo not drawn)            %               84
 7  COc1cc(OC)c([N+](=O)[O-])c(C(=O)N(CCCCC(=O)O)CCCc2ccccc2)c1            %               84
 8  CCOc1cc(OCC)cc(C(=O)N(CCCCC(=O)O)CCCc2ccccc2)c1            %               86
 9  COc1cc(C(=O)N(CCCCC(=O)O)CCCc2ccc(C)o2)cc(OC)c1C1CC1            %               77
10  CNS(=O)(=O)NC(=O)CCCCN(CCCc1ccccc1)C(=O)C1(c2ccc(OC)cc2)CC1            %               79
11  COc1cc(C(=O)N(CCCc2ccc(C)o2)CCCC(C)(C)C(=O)O)cc(OC)c1C            %               93
12  COc1cc(C(=O)N(CCCCC(=O)NS(=O)(=O)c2ccncc2)CCCc2ccccc2)cc(OC)c1C            %               66
13  COc1ccc(C(=O)N(CCCCC(=O)O)CCCc2ccccc2)cc1OC            %               11
14  COc1cc(C(=O)N(CCCCC(=O)O)CCCc2ccccc2)cc(OC)c1C1CC1            %               92
15  COc1cc(C(=O)N(CCCc2c(F)cccc2F)CCSCC(=O)O)cc(OC)c1C            %               86
16  COc1cc(C(=O)N(CCCc2ccccc2Cl)CCOCC(=O)O)cc(OC)c1C            %               71
17  COc1cc(C(=O)N(CCCc2ccccc2F)CCSCC(=O)O)cc(OC)c1C            %               85
18  COc1cc(C(=O)N(CCCc2cc(Cl)cc(Cl)c2)CCOCC(=O)O)cc(OC)c1C            %               14
19  COc1cccc(C2(C(=O)N(CCCCC(=O)O)CCCc3ccccc3)CC2)c1            %                2
20  COc1cc(C(=O)N(CCCc2ccccc2)C[C@H](O)CCC(=O)O)cc(OC)c1C            %               65
21  COc1cc(OC)cc(C(=O)N(CCCCC(=O)O)CCCc2cc(F)cc(F)c2)c1            %               47
22  CNS(=O)(=O)NC(=O)CCCCN(CCCc1ccccc1)C(=O)c1cc(OC)c(C)c(OC)c1            %               90
23  COc1cc(C(=O)N(CCCCC(=O)O)CCCc2ccc(C)o2)c(F)c(OC)c1F            %               67
24  COc1cc(C(=O)N(CCCCC(=O)O)CCCc2ccc(Cl)o2)cc(OC)c1C            %               84
25  COc1cc(C(=O)N(CCCCC(=O)O)CCC(C)c2ccccc2)cc(OC)c1C (stereo not drawn)            %               85
26  COc1cc(C(=O)N(CCCc2ccccc2)CC(=O)N[C@@H](Cc2cccs2)C(=O)O)cc(OC)c1C            %               58

###

Molecular target: LPAR1 (Homo sapiens, UniProt Q92633)
Construct: host or cells: U2OS
Sequence (Q92633 whole entry): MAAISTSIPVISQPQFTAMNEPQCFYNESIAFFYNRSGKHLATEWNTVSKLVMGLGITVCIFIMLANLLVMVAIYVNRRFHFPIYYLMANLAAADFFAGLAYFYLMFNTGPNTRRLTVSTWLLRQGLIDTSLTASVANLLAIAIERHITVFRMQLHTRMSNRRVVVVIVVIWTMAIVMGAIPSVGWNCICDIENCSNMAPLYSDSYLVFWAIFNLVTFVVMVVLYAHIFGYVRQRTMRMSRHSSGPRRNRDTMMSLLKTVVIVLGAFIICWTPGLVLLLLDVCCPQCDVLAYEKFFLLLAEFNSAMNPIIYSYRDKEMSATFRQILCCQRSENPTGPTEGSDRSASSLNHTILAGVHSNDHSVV
Assay: IP-One HTRF Assay
Assay type: cell-based
Conditions: U2OS cells stably expressing LPAR1; LPA stimulation; IP-One Tb HTRF kit
// reported IC50 per item
measured_endpoint: IC50 (nM)

In [3]: df
Out[3]:
                                    compound  limit_qualifier  numeric_readout
 0  COc1cc(C(=O)N(CCCc2cccc(Cl)c2)CCOCC(=O)O)cc(OC)c1C                =              809
 1  COc1cc(C(=O)N(CCCCC(=O)O)CCCc2ccc(Cl)o2)cc(OC)c1C                =              325
 2  COc1cc(C(=O)N(CCCc2ccccc2Cl)CCOCC(=O)O)cc(OC)c1C                =             1480
 3  COc1cc(C(=O)N(CCCCC(=O)NS(C)(=O)=O)CCCc2ccccc2)cc(OC)c1C                =              570
 4  COc1cc(C(=O)N(CCCCC(=O)O)CCCc2ccc(C)s2)cc(OC)c1C                =              191
 5  COc1cc(C(=O)N(CCCc2ccccc2)CCSCCC(=O)O)cc(OC)c1C                =              208
 6  COc1cc(C(=O)N(CCCc2ccc(C)o2)CCSCC(=O)O)cc(OC)c1C                =              220
 7  COc1cc(OC)cc(C(=O)N(CCCc2ccccc2)CCCC(C)(C)C(=O)O)c1                =              230
 8  COc1cc(C(=O)N(CCCc2cccc(F)c2)CCOCC(=O)O)cc(OC)c1C                =             1310
 9  COc1cc(C(=O)N(CCCCC(=O)O)CCCc2ccc(F)cc2)cc(OC)c1C                =              880
10  CNS(=O)(=O)NC(=O)CCCCN(CCCc1ccccc1)C(=O)c1cc(OC)cc(OC)c1                =             1180
11  COc1cc(C(=O)N(CCCc2ccccc2F)CCOCC(=O)O)cc(OC)c1C                =              902
12  COc1cc(C(=O)N(CCCCC(=O)O)CCCc2cccc(C)c2)cc(OC)c1C                =              253
13  COc1cc(C(=O)N(CCCCC(=O)O)CCCc2ccccc2)cc(OC)c1C(F)(F)F                =               69
14  COc1cc(C(=O)N(CCCc2ccccc2)CCOCC(=O)O)cc(OC)c1C                =              183
15  COc1cc(C(=O)N(CCCc2ccccc2)CCSCC2(C(=O)O)CC2)cc(OC)c1C                =              114
16  COc1cc(C(=O)N(CCCCC(=O)O)CCCc2cccc(Cl)c2)cc(OC)c1C                =              194
17  COc1cc(C(=O)N(CCCCCC(=O)O)CCCc2ccccc2)cc(OC)c1C                =              313
18  COc1cc(C(=O)N(CCCCC(=O)O)CCCc2ccccc2)cc(OC)c1C1CC1                =               59
19  CNS(=O)(=O)NC(=O)CCCCN(CCCc1ccccc1)C(=O)C1(c2ccc(OC)cc2)CC1                >            30000
20  COc1cc(C(=O)N(CCCc2ccccc2)CCOC(C)(C)C(=O)O)cc(OC)c1C                =               89
21  COc1cc(C(=O)N(CCCCC(=O)O)CCCc2ccccc2)cc(OC)c1Br                =               50
22  COc1cc(C(=O)N(CCCCC(=O)O)CCCc2ccccc2)cc(OC)c1C                =              115
23  COc1cc(OC)cc(C(=O)N(CCCCC(=O)O)CCCc2ccccc2)c1                =             1750
24  COc1cc(C(=O)N(CCCc2ccccc2)CCSC(C)CC(=O)O)cc(OC)c1C (centres unmarked)                =              291
25  COc1cc(C(=O)N(CCCC(=O)O)CCCc2ccccc2)cc(OC)c1C                =             3820
